Value source: PubChem BioAssay AID720551

Reported activity change is given for each of the following compounds.
target: Voltage-gated inwardly rectifying potassium channel KCNH2 (Homo sapiens) (UniProt Q12809); test: qHTS for Inhibitors of KCHN2 3.1: Wildtype qHTS; conditions: U2OS, BacMam KCNH2, thallium flux FluxOr; at 1.84 µM; hits give low values; also: % is scaled to controls: 0 for no effect and ±100 for the full control effect
Sequence (Q12809 whole entry, looked up): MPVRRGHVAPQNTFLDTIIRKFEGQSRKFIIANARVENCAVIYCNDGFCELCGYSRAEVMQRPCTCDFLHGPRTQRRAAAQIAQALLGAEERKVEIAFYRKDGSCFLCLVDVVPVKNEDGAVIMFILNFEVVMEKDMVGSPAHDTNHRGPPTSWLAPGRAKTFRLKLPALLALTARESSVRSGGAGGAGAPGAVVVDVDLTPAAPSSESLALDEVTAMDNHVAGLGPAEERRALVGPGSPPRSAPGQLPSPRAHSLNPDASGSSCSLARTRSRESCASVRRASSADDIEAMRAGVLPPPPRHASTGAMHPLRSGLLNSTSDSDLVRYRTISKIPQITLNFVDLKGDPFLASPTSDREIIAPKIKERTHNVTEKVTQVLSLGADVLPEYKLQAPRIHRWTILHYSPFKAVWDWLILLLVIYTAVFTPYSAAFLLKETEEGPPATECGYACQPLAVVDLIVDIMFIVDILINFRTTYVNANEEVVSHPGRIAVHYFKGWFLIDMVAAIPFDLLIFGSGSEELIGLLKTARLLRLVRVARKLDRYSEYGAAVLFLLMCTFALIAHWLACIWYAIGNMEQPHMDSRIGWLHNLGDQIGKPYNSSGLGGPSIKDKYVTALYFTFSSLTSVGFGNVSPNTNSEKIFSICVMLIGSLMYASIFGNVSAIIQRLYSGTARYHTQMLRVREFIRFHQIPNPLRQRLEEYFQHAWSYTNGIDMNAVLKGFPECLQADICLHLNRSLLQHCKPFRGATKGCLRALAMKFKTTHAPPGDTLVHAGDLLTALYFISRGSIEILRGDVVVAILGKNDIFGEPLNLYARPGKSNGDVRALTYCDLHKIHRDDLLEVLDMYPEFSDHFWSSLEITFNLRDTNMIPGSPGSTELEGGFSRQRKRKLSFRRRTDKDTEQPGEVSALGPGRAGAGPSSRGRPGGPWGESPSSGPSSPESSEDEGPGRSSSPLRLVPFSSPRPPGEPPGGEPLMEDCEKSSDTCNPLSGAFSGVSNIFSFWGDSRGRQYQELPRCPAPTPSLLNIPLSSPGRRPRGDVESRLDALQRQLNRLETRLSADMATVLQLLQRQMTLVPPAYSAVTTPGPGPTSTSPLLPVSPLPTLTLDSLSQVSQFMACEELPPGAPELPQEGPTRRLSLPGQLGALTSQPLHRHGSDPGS
Among all 340,000 compounds or so, about 1,300 (0.38%) were called active. The entries come from a sample that favours actives as a whole.
Write the number in % without appending the unit.

Examples with answers:
COc1ccc(NC(=O)CCCOc2ccc(C(C)=O)cc2)cc1S(=O)(=O)N1CCCCC1 :: -1.81
c1ccc(CCc2ccccn2)cc1 :: 15.2
Cc1ccc(S(=O)(=O)N2C[C@@H](C)[C@]3(C2)[C@H](O)[C@H](OC(=O)NCc2ccccc2)C[C@H]2C(=O)N(c4ccccc4)C(=O)[C@H]23)cc1 :: -2.73
O=C(CCCN1C(=O)C(c2ccccc2)Oc2cccnc21)Nc1ccccc1Br (stereo unspecified) :: -7.82
CC1(C)CN(CCc2ccccc2)C(=O)[C@H]1CC(=O)Nc1ccc(Br)cc1 :: -7.47

Then there is this compound:
`COc1ccc([C@H]2N[C@]3(CCCN(CC4CCCCC4)C3=O)[C@H]3C(=O)N(C)C(=O)[C@@H]23)cc1` yielded activity change of 14.1
